# measurementTarget: CRK 124-198, P46108
# Sequence (P46108 124-198): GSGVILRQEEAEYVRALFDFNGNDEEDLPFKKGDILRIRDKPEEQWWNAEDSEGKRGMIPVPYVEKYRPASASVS
quantityKind: selected by phage display

Completed entries (count: 5):
1) TPPPPSMPHKERYFDR [ADD3, Q9UEY8]
confidence 2 (active)
2) IPASPGQAAPLLPKKG [NUAK2, Q9H093]
confidence 2 (active)
3) SSALAATLPTLPAKVY [NCF4, Q15080]
confidence 2 (active)
4) VQDIQPALPTKGEVLL [IVL, P07476]
confidence 4 (active)
5) PRPPELPQKRLKTLDA [WDR83, Q9BRX9]
confidence 4 (active)

Exercise: Return reported selected by phage display. Input binder: TNLPDVPNKSAPSPTS [ZNF462, Q96JM2]
Solution: confidence 2 (active)

Exercise: Recall and state the measured selected by phage display for PTLPPKGLAGPPASPG [KIAA1522, Q9P206] .
Solution: confidence 3 (active)

Exercise: Please give the documented selected by phage display of LSIPVTSEPPALPPKP [DOCK4, Q8N1I0]
Solution: confidence 2 (active)

Exercise: Let me know recorded selected by phage display for APSLPGKGSGASVALM [ZNF469, Q96JG9] , thanks.
Solution: confidence 3 (active)

Exercise: Answer with the recorded selected by phage display of PLPPPKEVINGNIKTV [EIF3G, O75821] only.
Solution: confidence 3 (active)

Exercise: Give the measured selected by phage display for GPRLPPRQPTVASPAE [SATB1, Q01826]
Solution: confidence 2 (active)

Exercise: Name the recorded selected by phage display of the item VELAPILPAKKQGGRP [NPM3, O75607] in your answer.
Solution: confidence 4 (active)

Exercise: Tell us which selected by phage display value is on record for ESVAYHAQNNPPVPPK [ADNP, Q9H2P0]
Solution: confidence 2 (active)

Exercise: Look up selected by phage display of SMELLPPELPPRIPIE [SH2B1, Q9NRF2] and report it.
Solution: confidence 4 (active)

Attribution: paper PMC8769072
